Ref: the supplement of paper PMC7877785

self-splicing fitness (ln) values, listed per item
measurement.notes: self-splicing fitness, log relative to wild type (ln ratio); higher = more splicing; Tetrahymena group I intron in knt gene, E. coli kanamycin selection, DiMSum; sequences stand for … in CUCUCU…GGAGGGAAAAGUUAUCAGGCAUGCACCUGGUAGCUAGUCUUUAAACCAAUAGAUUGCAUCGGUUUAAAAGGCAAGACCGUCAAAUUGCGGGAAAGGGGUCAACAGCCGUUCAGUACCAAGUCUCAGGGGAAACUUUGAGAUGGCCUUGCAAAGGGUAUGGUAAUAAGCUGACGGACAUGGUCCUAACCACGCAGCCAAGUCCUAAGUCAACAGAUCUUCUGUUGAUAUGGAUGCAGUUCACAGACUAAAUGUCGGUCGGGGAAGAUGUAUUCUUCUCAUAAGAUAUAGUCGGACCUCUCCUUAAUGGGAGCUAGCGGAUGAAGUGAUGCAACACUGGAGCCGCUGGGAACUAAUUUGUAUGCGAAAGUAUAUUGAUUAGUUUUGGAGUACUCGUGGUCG;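 note: selection with 25 µg/mL kanamycin versus none on LB agar overnight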
details: 37 °C

chain.sequence	self-splicing fitness (ln)
UACAAGCAAUAUUACGAUAA	-0.276
GUAUAGCAAUAUUACGGAGG	-3.14
UCAAAGCAAUAUUACGAAUG	-1.67
UCACAGCAAUAUUACGUAUC	-2.75
UGCAAGCAAUAUUACGAGAG	-2.97
AUCCAGCAAUAUUACGUGCC	-1.09
CCGGAGCAAUAUUACGGGGC	-2.55

---

self-splicing fitness (ln) values, listed per item
measurement.notes: self-splicing fitness, log relative to wild type (ln ratio); higher = more splicing; Tetrahymena group I intron in knt gene, E. coli kanamycin selection, DiMSum; sequences stand for … in CUCUCU…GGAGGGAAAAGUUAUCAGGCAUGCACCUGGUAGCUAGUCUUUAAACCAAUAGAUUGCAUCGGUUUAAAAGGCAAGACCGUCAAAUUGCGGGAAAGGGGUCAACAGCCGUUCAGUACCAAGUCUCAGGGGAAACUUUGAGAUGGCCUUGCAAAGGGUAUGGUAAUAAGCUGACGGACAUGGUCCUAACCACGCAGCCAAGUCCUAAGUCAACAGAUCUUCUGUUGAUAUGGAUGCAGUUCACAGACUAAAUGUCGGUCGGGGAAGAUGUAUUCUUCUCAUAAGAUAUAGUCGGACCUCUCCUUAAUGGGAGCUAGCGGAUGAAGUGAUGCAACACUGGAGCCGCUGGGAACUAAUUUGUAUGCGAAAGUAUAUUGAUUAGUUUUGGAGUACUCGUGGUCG
details: 37 °C
measured.metric: self-splicing fitness (ln)

chain.sequence	measured.metric	observed
UACGAGCAAUAUUACGGCUC	self-splicing fitness (ln)	0.0878
AACCAGCAAUAUUACGGCAA	self-splicing fitness (ln)	-0.0314
UUCGAGCAAUAUUACGUUGC	self-splicing fitness (ln)	-1.27
AAUUAGCAAUAUUACGUUUA	self-splicing fitness (ln)	-0.975
GUAUAGCAAUAUUACGUAGC	self-splicing fitness (ln)	-1.46
CUCAAGCAAUAUUACGUAUA	self-splicing fitness (ln)	-2.59
UAGAAGCAAUAUUACGGUGC	self-splicing fitness (ln)	-1.46
AUUUAGCAAUAUUACGGACC	self-splicing fitness (ln)	-1.29
CCUAAGCAAUAUUACGCUCA	self-splicing fitness (ln)	-3.18
AUAUAGCAAUAUUACGUGCU	self-splicing fitness (ln)	-0.807
UGUCAGCAAUAUUACGGUAU	self-splicing fitness (ln)	-1.11
CACGAGCAAUAUUACGGCAU	self-splicing fitness (ln)	-3.52
GGUAAGCAAUAUUACGUGAC	self-splicing fitness (ln)	-1.66
UCUUAGCAAUAUUACGCGCU	self-splicing fitness (ln)	-3.27
GUUCAGCAAUAUUACGUACG	self-splicing fitness (ln)	-0.0258
AGGGAGCAAUAUUACGUGAA	self-splicing fitness (ln)	-2.53
